System: SN12C
assay.name: NCI tumour cell line growth inhibition, 48 h
The source made the active and inactive calls. Cut-off read from the data, not from the text of the source: active = GI50 up to about 1.1 µM and inactive = higher. Non-standard residues stand in square brackets, D forms with d. Residues, ends and D or L forms follow the SMILES beside them. ξ: configuration not given here. *: point of attachment. NMeF = CN[C@@H](Cc1ccccc1)C(=O)O; NMeN = CN[C@@H](CC(N)=O)C(=O)O; NMeV = CN[C@H](C(=O)O)C(C)C; ξNMeV = CNC(C(=O)O)C(C)C; Boc = CC(C)(C)OC(=O)*; ξNMeA = CNC(C)C(=O)O; ξV = CC(C)C(N)C(=O)O
assay.readout: GI50

Worked examples, 8 molecules total:
{"molecule": "CN(C)CC1CCC/C(=C\\c2ccc(Cl)c(Cl)c2)C1=O (centres undefined)", "GI50": "3.42 µM (inactive)"}
{"molecule": "COC(=O)C(C)N(C)C(=O)[C@H](CC(N)=O)N(C)C(=O)[C@@H]1CCCN1C(=O)[C@H](C(C)C)N(C)C(=O)C(C(C)C)N(C)C(=O)[C@H](Cc1ccccc1)N(C)C(=O)C(NC(=O)OC(C)(C)C)C(C)C (some centres undefined) (Boc-[ξV][NMeF][ξNMeV][NMeV]P[NMeN][ξNMeA]-OMe)", "GI50": "26 µM (inactive)"}
{"molecule": "CN(C)CCCNC(=O)N/N=C/c1ccccc1", "GI50": "> 100 µM (inactive)"}
{"molecule": "c1ccc2c(c1)NCc1cc3ccccc3nc1O2", "GI50": "> 100 µM (inactive)"}
{"molecule": "N#CC1=C(O)NC(O)=C(C#N)C1c1c(Cl)cccc1Cl", "GI50": "31.8 µM (inactive)"}
{"molecule": "O=C1CCCCC2N(C(c3ccccc3)c3ccccc3)CC[C@@]12c1ccccc1.O=C1CCCC[C@H]2N(C(c3ccccc3)c3ccccc3)CC[C@@]12c1ccccc1 (some centres undefined)", "GI50": "> 10 µM (inactive)"}
{"molecule": "COc1ccc(/C=C2\\C(=O)N(C(=O)c3ccc(NC(C)=O)cc3)N=C2C)cc1", "GI50": "> 100 µM (inactive)"}
{"molecule": "O=[N+]([O-])c1ccc(-c2cnc3ccccn23)cc1", "GI50": "61.2 µM (inactive)"}

Take each entry in turn and give its GI50.
1. COc1ccc(-c2c(C#N)c(O)n(NS(=O)(=O)c3ccc(C)cc3)c(=O)c2C#N)cc1
2. CC(=O)OC1(C)C=CC(=O)C=C1

1: > 100 µM (inactive); 2: 62.7 µM (inactive)

Take each entry in turn and give its GI50.
1. COC(=O)[C@@H]1C[C@@]2(C3C=CN(C(=O)C(F)(F)F)C=C3)c3ccccc3N(C(=O)C(F)(F)F)[C@H]2N1C(=O)OC
2. N=C(N)SC(c1ccccc1)c1ccccc1
3. CC1=CC(=O)/C(=C/N2CCNC2=S)C(=O)O1
4. Nc1nc(NNc2cccc(F)c2)cc(=O)[nH]1
5. CC(C)N1[C@@H]2CCCC[C@H]2N(C(C)C)P1(=O)C(=O)/C=C/c1ccccc1

1: 56.9 µM (inactive); 2: 16 µM (inactive); 3: > 100 µM (inactive); 4: 65.8 µM (inactive); 5: 1.99 µM (inactive)

Take each entry in turn and give its GI50.
1. CCSc1[nH]c(NC(=S)NC(=O)c2ccccc2Cl)c(C(N)=O)c1C(N)=O
2. COC(=O)CCC(=O)N1C/C(=C\c2ccccc2)C(=O)/C(=C/c2ccccc2)C1
3. N#CCCCCC12C3C(=O)N(c4ccccc4)C(=O)C3ON1O[C@@H]1C(=O)N(c3ccccc3)C(=O)[C@@H]12 (some centres undefined)

> 10 µM (inactive)
1.86 µM (inactive)
> 100 µM (inactive)

Give measured GI50 for CC(=O)OC1C(COC(=O)c2ccccc2)OC(Nc2ncc(-c3ccc(Br)cc3)s2)C(OC(=O)c2ccccc2)C1OC(=O)c1ccccc1 (centres undefined) (SN12C).
> 100 µM (inactive)
